Form field: melting point (one value per entry).
measured-attribute: melting point (°C)

{"molecule": "Cc1ccc(-c2csc(/C(C#N)=N\\Nc3ccc(O)cc3)n2)cc1", "reported-measurement": 252}
{"molecule": "CC(F)(F)CCl", "reported-measurement": -56.2}
{"molecule": "COc1ccc(C(C)=O)cc1Cl", "reported-measurement": 75}
{"molecule": "c1cc2c(cc1CN1CCNCC1)OCO2", "reported-measurement": 43}
{"molecule": "COc1ccc(C(C)=O)c(F)c1", "reported-measurement": 52}
{"molecule": "COc1cccc(C#N)c1", "reported-measurement": 23}
{"molecule": "CSc1nc(N)nc(-c2cnccn2)n1", "reported-measurement": 215}
{"molecule": "O=C1c2ccccc2C(=O)c2c1ccc1ccccc21", "reported-measurement": 170}
{"molecule": "CC(C)CCCC(C)C1CCC2C3CC=C4CC(OC(=O)Cl)CCC4(C)C3CCC12C (stereo not drawn)", "reported-measurement": 118}
{"molecule": "Ic1ccc(N(c2ccc(I)cc2)c2ccc(I)cc2)cc1", "reported-measurement": 167}
{"molecule": "O=C(C1=NOC2C(=O)N(c3cccc([N+](=O)[O-])c3)C(=O)C12)c1cccc2ccccc12 (stereo not drawn)", "reported-measurement": 191}
{"molecule": "Cc1cc(C2(c3cc(C)c(O)c(CN(CC(=O)O)CC(=O)O)c3)OC(=O)c3ccccc32)cc(CN(CC(=O)O)CC(=O)O)c1O", "reported-measurement": 181}
{"molecule": "CCc1c2c(nc3ccc(OC(=O)N4CCC(N5CCCCC5)CC4)cc13)-c1cc3c(c(=O)n1C2)COC(=O)C3(O)CC (stereo not drawn)", "reported-measurement": 222}
{"molecule": "O=S(=O)(Oc1ccc(Cl)cc1)c1ccc(Cl)cc1", "reported-measurement": 86.5}
{"molecule": "CC(C)(C)c1ncc(C(=O)Nc2cccc(Br)c2)nc1Cl", "reported-measurement": 105}
